- Tested on: BT-549 breast
- PROTOCOL SUMMARY: NCI tumour cell line growth inhibition, 48 h
What TGI was measured for each of the following?
Could you give me the number in µM? Just the number is fine.

Q: Checklist item: TGI tested on BT-549 breast, entry O=C(/C=C/c1ccc(B(O)O)cc1)/C=C/c1ccc(B(O)O)cc1 , value?
A: 3.35

Q: Lab note: need TGI for C=C1C(=O)O[C@H]2[C@H]1CC/C(CNC(=O)/C=C/c1ccc(Br)cc1)=C\CC[C@@]1(C)O[C@@H]21 on BT-549 breast, anyone have it?
A: 2.95

Q: Return TGI measured with BT-549 breast given this compound: COC1=CC(c2ccc[nH]2)=N/C1=C\c1[nH]c(C)c(C(=O)OCc2ccccc2)c1C
A: 3.46

Q: Enter reported TGI observed with BT-549 breast for O=P([O-])(O)OP(=O)([O-])O.[NH-][C@H]1CCCC[C@@H]1[NH-].[OH-].[OH-].[Pt+4]
A: 47.9

* * *

- System: SK-MEL-28 melanoma
- PROTOCOL SUMMARY: NCI tumour cell line growth inhibition, 48 h
READOUT TYPE: GI50

Q: Can you share its GI50? I mean this compound: Cc1cc(C)nc(NC(N)=NCCc2ccccc2)n1
A: 3590 nM

Q: Entry under review: CCC[CH2][Sn]([CH2]CCC)([O]C(=O)c1c(F)cccc1F)[O]C(=O)c1c(F)cccc1F . Reported GI50?
A: 599 nM

Q: Item under review: COc1cc2c(cc1OCCCN1CCN(CCCOc3cc4c(cc3OC)C(=O)N3CCC[C@H]3C=N4)CC1)C=CC(C)(C)O2 . Reported GI50?
A: 1510 nM

Q: Fill blank: measured GI50 of the compound CCCN(CCC)CCCNCc1cc(I)cc(C)c1O is ____.
A: 15400 nM

Q: Which value of GI50 has been reported for COc1ccc(-c2[nH]ncc2-c2cc3c(c(OC)c2)OCC(=O)N3)cc1 in the records?
A: 5190 nM

Q: Which value of GI50 has been reported for O=C(/C=C/c1ccc(B(O)O)cc1)/C=C/c1ccc(B(O)O)cc1 in the records?
A: 2260 nM

Q: Look up GI50 for this compound: C=C(CNC(=O)Nc1ccc(-c2ccccc2)cc1)c1ccc(C(=O)Nc2ccccc2N)cc1
A: 48300 nM

Q: Which GI50 is listed for CC1=C([Se]CC(OC(=O)[C@@H](CSSC(C)(C)C)NC(=O)OC(C)(C)C)C(=O)NC(C)(C)C)C(=O)c2ccccc2C1=O (stereo partly drawn) ?
A: 1620 nM

* * *

- Test system: PC-3 prostate
- PROTOCOL SUMMARY: NCI tumour cell line growth inhibition, 48 h; in the data active = GI50 below about 0.43 µM; inactive = the rest
One label from this list, please: active, inactive

Q: What was the test verdict on Cc1[nH]ncc1-c1cc2nc(C3CC4CCN3CC4)[nH]c(=O)c2s1 (stereo not given) ?
A: inactive

Q: Could you please tell me the result logged for CN(C)CCCOc1ccccc1NC1=C(Cl)C(=O)C(Nc2ccccc2OCCCN(C)C)=C(Cl)C1=O in this assay?
A: inactive

Q: For CC1=NN(C(=O)c2ccccc2O)C(=O)/C1=C/c1ccc([N+](=O)[O-])cc1 , what call appears in the results of this test?
A: active

Q: What outcome does the record of this test show for O=P([O-])(O)OP(=O)([O-])O.[NH-][C@H]1CCCC[C@@H]1[NH-].[OH-].[OH-].[Pt+4] ?
A: inactive

Q: Per the assay record, what outcome was assigned to Cc1c2cc[nH]c(=O)c2c(C)c2c1[nH]c1cc(OCCN3CCN(C)CC3)ccc12 ?
A: inactive

Q: GET /call?item= COc1cccc2c1C(=O)c1c(O)c3c(c(O)c1C2=O)CC(O)(C(C)=O)CC3OC1CC(N)C(O)C(C)O1 (stereo not given) returns the recorded outcome of this test.
A: inactive

Q: Look up the recorded call for COc1cccc(C2CC(c3cc(OC)c(OC)c(OC)c3)=NN2)c1 (stereo not given) in this test.
A: inactive

Q: How was C=C1C(=O)O[C@H]2[C@H]1CC/C(CNC(=O)/C=C/c1ccc(Br)cc1)=C\CC[C@@]1(C)O[C@@H]21 classified in this test?
A: inactive

Q: Check the results log: what was the call for COc1ccc2c(c1)C(=O)c1c-2n(CCCN)c(=O)c2ccccc12 ?
A: active

Q: # fetch the recorded call for O=C(/C=C/c1ccc(B(O)O)cc1)/C=C/c1ccc(B(O)O)cc1 here
A: inactive

Q: Tell me the assay call for CO[C@H](C(=O)[C@@H](O)[C@@H](C)O)[C@@H]1Cc2cc3cc(O[C@H]4C[C@@H](O[C@H]5C[C@@H](O)[C@H](O)C(C)O5)[C@H](O)C(C)O4)c(C)c(O)c3c(O)c2C(=O)[C@H]1O[C@H]1C[C@@H](O[C@H]2C[C@@H](O[C@H]3C[C@@H](OC)[C@H](O)C(C)O3)[C@@H](O)C(C)O2)C(O)(O)C(C)O1 (stereo not given in full) please.
A: active

Q: Check the results log: what was the call for COC(=O)[C@@H](NC(=O)NC(=O)NC(=O)CI)C(C)C ?
A: inactive

Q: Please share the test call associated with Cc1ccc(C(=O)N(CCCN)[C@@H](c2nc3cc(Cl)ccc3c(=O)n2Cc2ccccc2)C(C)C)cc1 .
A: active

Q: Please let me know the test result on file for C=C(CNC(=O)Nc1ccc(-c2ccccc2)cc1)c1ccc(C(=O)Nc2ccccc2N)cc1 .
A: inactive

Q: Look up the recorded call for O=C(c1ccccc1)c1c(NCC(O)CN2CCCC2)n(Cc2ccccc2)c(=O)n(Cc2ccccc2)c1=O (stereo not given) in this test.
A: inactive
